Target: T1, His-tagged CEACAM1 (human, UniProt P13688 35-428)
T1 construct: 45 kDa SPR analyte; also called CEACAM1-HIS; CEACAM1 analyte
T1 sequence: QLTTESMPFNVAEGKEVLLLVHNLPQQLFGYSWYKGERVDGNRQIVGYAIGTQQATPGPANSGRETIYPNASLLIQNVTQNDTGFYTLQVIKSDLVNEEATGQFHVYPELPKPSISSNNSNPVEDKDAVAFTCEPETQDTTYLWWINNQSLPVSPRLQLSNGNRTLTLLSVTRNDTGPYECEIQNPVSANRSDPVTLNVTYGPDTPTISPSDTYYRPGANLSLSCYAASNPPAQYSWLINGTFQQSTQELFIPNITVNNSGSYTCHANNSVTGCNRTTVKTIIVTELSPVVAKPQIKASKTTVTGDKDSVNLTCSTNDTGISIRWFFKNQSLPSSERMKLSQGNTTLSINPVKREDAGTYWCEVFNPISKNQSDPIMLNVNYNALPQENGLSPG
Experiment: SPR multi-cycle, IgG captured
attribute.measured: average relative KD to VH0/Vκ0
Reply: number alone, nothing else.

Here's what some known entries look like.
{"binder": "VH2/Vκ12 (antibody, IgG4, V domains shown, IgG4 (S241P), kappa) VH: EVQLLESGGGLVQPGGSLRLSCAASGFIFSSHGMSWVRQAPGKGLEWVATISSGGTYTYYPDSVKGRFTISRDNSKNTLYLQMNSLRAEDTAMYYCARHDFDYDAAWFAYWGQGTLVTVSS VL: EIVLTQSPATLSLSPGERATLSCRANSSVSYMYWYQQKPGQAPRPLIYLTSNRATGIPARFSGSGSGTDYTLTISSLEPEDFATYYCQQWSSNPPTFGQGTKLEIK", "average relative KD to VH0/Vκ0": 2.7}
{"binder": "VH1/Vκ10 (antibody, IgG4, V domains shown, IgG4 (S241P), kappa) VH: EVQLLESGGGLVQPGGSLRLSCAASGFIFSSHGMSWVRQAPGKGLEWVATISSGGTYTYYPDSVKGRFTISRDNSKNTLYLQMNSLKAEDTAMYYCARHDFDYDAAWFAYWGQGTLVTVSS VL: EIVLTQSPATLSLSPGERATLSCRANSSVSYMYWYQQKPGQAPRPWIYLTSNRATGIPARFSGSGSGTDFTLTISSLEPEDFATYYCQQWSSNPPTFGQGTKLEIK", "average relative KD to VH0/Vκ0": 3.2}
{"binder": "VH1/Vκ7 (antibody, IgG4, V domains shown, IgG4 (S241P), kappa) VH: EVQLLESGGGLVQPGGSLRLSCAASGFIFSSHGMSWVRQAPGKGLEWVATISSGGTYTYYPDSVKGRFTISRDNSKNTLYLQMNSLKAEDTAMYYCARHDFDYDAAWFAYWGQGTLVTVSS VL: EIVLTQSPATLSLSPGERATLSCRANSSVSYMYWYQQKPGQAPRPWIYLTSNRATGVPARFSGSGSGTDFTLTISSLEPEDFATYYCQQWSSNPPTFGQGTKLEIK", "average relative KD to VH0/Vκ0": 2}

Here is another binder to look at.
Request: Can you share its average relative KD to VH0/Vκ0? I mean this binder: VH1/Vκ2 (antibody, IgG4, V domains shown, IgG4 (S241P), kappa) VH: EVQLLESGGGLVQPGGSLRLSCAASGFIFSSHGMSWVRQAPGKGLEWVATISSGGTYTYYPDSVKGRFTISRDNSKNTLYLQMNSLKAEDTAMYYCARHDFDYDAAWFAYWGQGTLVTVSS VL: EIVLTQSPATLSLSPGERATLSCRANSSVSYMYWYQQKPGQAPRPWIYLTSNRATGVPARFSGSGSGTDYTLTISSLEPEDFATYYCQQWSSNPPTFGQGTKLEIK
Result: 3.4
